Molecular target: Serine/threonine-protein kinase SIK2 (Homo sapiens); note: in the data inactive means no Kd found up to 30 µM
Sequence (Q9H0K1 whole entry): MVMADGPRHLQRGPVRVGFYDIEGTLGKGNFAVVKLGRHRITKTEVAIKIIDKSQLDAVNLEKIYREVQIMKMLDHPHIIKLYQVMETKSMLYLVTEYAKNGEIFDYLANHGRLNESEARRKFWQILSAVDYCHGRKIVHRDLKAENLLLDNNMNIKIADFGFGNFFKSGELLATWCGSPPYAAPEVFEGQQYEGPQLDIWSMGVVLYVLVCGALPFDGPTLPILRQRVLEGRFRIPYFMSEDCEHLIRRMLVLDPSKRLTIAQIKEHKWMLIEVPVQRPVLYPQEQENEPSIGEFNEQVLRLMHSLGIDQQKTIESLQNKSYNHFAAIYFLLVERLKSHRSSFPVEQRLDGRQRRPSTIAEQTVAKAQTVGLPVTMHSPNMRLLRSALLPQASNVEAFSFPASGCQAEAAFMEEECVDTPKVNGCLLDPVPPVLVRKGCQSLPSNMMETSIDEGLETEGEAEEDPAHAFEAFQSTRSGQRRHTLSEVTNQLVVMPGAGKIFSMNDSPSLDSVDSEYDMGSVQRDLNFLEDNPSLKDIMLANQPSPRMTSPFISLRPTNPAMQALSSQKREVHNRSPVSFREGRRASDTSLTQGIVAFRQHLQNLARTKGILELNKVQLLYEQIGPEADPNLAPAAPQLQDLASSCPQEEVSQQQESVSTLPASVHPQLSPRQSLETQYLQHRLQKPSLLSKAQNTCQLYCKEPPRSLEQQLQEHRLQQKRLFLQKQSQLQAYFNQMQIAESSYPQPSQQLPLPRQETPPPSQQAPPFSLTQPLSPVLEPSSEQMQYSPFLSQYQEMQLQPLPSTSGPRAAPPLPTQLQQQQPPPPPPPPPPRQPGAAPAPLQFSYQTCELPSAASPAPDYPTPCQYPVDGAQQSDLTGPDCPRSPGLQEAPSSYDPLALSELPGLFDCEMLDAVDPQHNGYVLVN
Active and inactive are the calls of the source.
Classes used: TRUE (active), FALSE (inactive)

- compound: "Cc1cnc(NC(=O)Nc2cc(Br)c(C)cc2OC[C@@H]2CNCCO2)cn1"
  assigned_category: "FALSE"
- compound: "Cc1[nH]c(/C=C2\\C(=O)Nc3ccccc32)c(C)c1CCC(=O)O [ORANTINIB]"
  assigned_category: "FALSE"
- compound: "COCc1c(-c2ccc(NC(=O)Nc3cc(C(F)(F)F)ccc3F)c(F)c2)c2c(N)ncnn2c1CN1CCOCC1"
  assigned_category: "FALSE"
- compound: "C=CC(=O)Nc1cc2c(Nc3ccc(F)c(Cl)c3)ncnc2cc1C#CC(C)(C)N1CCN(C)CC1 [AV-412 FREE BASE]"
  assigned_category: "FALSE"
- compound: "CN1CCN(CCOc2cc(OC3CCOCC3)c3c(Nc4c(Cl)ccc5c4OCO5)ncnc3c2)CC1"
  assigned_category: "TRUE"
- compound: "CCn1c(C(=O)N(C2CC2)C2CC2)cc2c3c(ncn3C)c(Nc3cc(C)n(C)n3)nc21"
  assigned_category: "FALSE"
- compound: "COc1ccc(S(=O)(=O)N(C(C)=O)c2ccccc2/C=C/c2cc[n+]([O-])cc2)cc1"
  assigned_category: "FALSE"
- compound: "Cc1nc(NC(=O)N2CCC[C@H]2C(N)=O)sc1-c1ccnc(C(C)(C)C(F)(F)F)c1"
  assigned_category: "FALSE"
- compound: "CN(C[C@@H]1COCCO1)S(=O)(=O)Nc1ccc2ccc3ncc(-c4cnn(C)c4)cc3c(=O)c2c1"
  assigned_category: "FALSE"
- compound: "Cn1cc(-c2cnn3c(N)c(Br)c([C@@H]4CCCNC4)nc23)cn1"
  assigned_category: "TRUE"
- compound: "Cc1cc(Nc2ncc(Cl)c(Nc3ccccc3S(=O)(=O)C(C)C)n2)c(OC(C)C)cc1C1CCNCC1"
  assigned_category: "FALSE"
- compound: "O=C(Nc1cc(C(F)(F)F)cc(C(F)(F)F)c1)c1cc(Cl)ccc1O"
  assigned_category: "FALSE"
- compound: "C#Cc1cccc(Nc2ncnc3cc(OC)c(OCCCCCCC(=O)NO)cc23)c1"
  assigned_category: "FALSE"
- compound: "Cn1ncc(Cl)c1-c1cc(C(=O)N[C@H](CN)Cc2ccc(F)c(F)c2)oc1Cl"
  assigned_category: "FALSE"
- compound: "CCn1cc(-c2ccnc3[nH]c(-c4cccc(CN(C)C)c4)cc23)c(-c2ccc(NC(=O)N(C)C)cc2)n1"
  assigned_category: "TRUE"
- compound: "COc1cc2ncnc(Oc3cccc(NC(=O)Nc4cc(C(C)(C)C(F)(F)F)on4)c3)c2cc1OC"
  assigned_category: "FALSE"
- compound: "COc1cc(Nc2ncc3c(n2)-c2ccc(Cl)cc2C(c2c(F)cccc2OC)=NC3)ccc1C(=O)O"
  assigned_category: "FALSE"
- compound: "Cc1cc(Nc2ncnc3ccc(NC4=NC(C)(C)CO4)cc23)ccc1Oc1ccn2ncnc2c1"
  assigned_category: "FALSE"
- compound: "Nc1ncnc2c1c(-c1cccc(OCc3ccccc3)c1)cn2[C@H]1C[C@@H](CN2CCC2)C1"
  assigned_category: "FALSE"
- compound: "Cn1cnc2c(F)c(Nc3ccc(Br)cc3F)c(C(=O)NOCCO)cc21"
  assigned_category: "FALSE"
- compound: "CO[C@H]1C[C@@H]2CC[C@@H](C)[C@@](O)(O2)C(=O)C(=O)N2CCCC[C@H]2C(=O)O[C@H]([C@H](C)C[C@@H]2CC[C@@H](OP(C)(C)=O)[C@H](OC)C2)CC(=O)[C@H](C)/C=C(\\C)[C@@H](O)[C@@H](OC)C(=O)[C@H](C)C[C@H](C)/C=C/C=C/C=C/1C"
  assigned_category: "FALSE"
- compound: "COc1ncc(-c2ccc3nccc(-c4ccnnc4)c3c2)cc1NS(=O)(=O)c1ccc(F)cc1F"
  assigned_category: "FALSE"
- compound: "N#CC1(c2ccc(NC(=O)c3cccnc3NCc3ccncc3)cc2)CCCC1"
  assigned_category: "FALSE"
- compound: "C=CC(=O)N1CCC[C@H](n2c(=O)n(-c3ccc(Oc4ccccc4)cc3)c3c(N)ncnc32)C1"
  assigned_category: "FALSE"

====

Calls of active or inactive are those of the source.
Quick record of Kd values for Epithelial discoidin domain-containing receptor 1 (Homo sapiens, UniProt Q08345).

- molecule: "C[C@H]1CNCCCN1S(=O)(=O)c1cccc2cncc(F)c12"
  Kd: "> 30 µM (inactive)"
- molecule: "CCn1cc(-c2ccnc3[nH]c(-c4cccc(CN(C)C)c4)cc23)c(-c2ccc(NC(=O)N(C)C)cc2)n1 [GSK-1070916]"
  Kd: "0.008 µM (active)"
- molecule: "CCCCCCCCCCCCCCCCCCOP(=O)([O-])OC1CC[N+](C)(C)CC1 [PERIFOSINE]"
  Kd: "> 30 µM (inactive)"
- molecule: "Cc1cc(Nc2ncc(Cl)c(Nc3ccccc3S(=O)(=O)C(C)C)n2)c(OC(C)C)cc1C1CCNCC1 [CERITINIB]"
  Kd: "> 30 µM (inactive)"

====

Target: Protein-tyrosine kinase 6 (Homo sapiens); note: in the data inactive means no Kd found up to 30 µM
Sequence (Q13882 whole entry): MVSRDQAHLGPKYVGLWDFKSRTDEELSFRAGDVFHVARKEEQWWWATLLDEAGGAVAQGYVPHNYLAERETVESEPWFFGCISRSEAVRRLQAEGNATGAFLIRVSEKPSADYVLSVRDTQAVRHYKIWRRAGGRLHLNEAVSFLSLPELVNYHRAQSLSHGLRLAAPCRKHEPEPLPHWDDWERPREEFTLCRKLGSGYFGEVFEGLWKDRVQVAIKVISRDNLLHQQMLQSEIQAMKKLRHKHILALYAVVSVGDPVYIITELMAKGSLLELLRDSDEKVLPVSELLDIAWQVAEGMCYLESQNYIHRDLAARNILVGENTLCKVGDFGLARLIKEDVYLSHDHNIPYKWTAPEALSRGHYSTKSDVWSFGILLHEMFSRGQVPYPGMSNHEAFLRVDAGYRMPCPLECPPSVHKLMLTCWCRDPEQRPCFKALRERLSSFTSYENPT
Calls of active or inactive are those of the source.
Classes used: 1 = active, 0 = inactive

- compound: "NC(=O)Nc1cc(-c2cccc(F)c2)sc1C(=O)N[C@H]1CCCNC1 [AZD-7762]"
  assigned_category: 1
- compound: "Cn1cc(-c2cnn3c(N)c(Br)c([C@@H]4CCCNC4)nc23)cn1 [SCH-900776]"
  assigned_category: 0
- compound: "O=C1NC(=O)[C@@H](c2cn3c4c(cccc24)CCC3)[C@@H]1c1c[nH]c2ccccc12 [TIVANTINIB]"
  assigned_category: 0
- compound: "CCNC(=O)C#Cc1ccc2c(c1)NC(=O)/C2=C(\\Nc1ccc(CN(C)C)cc1)c1ccccc1"
  assigned_category: 0
- compound: "COc1ccc(S(=O)(=O)N(C(C)=O)c2ccccc2/C=C/c2cc[n+]([O-])cc2)cc1 [HMN-214]"
  assigned_category: 0
- compound: "Cc1nc2cc(-c3nn(C(C)C)c4ncnc(N)c34)ccc2o1"
  assigned_category: 1
- compound: "CCn1c(C(=O)N(C2CC2)C2CC2)cc2c3c(ncn3C)c(Nc3cc(C)n(C)n3)nc21 [BMS-911543]"
  assigned_category: 0
- compound: "CCn1cc(-c2ccnc3[nH]c(-c4cccc(CN(C)C)c4)cc23)c(-c2ccc(NC(=O)N(C)C)cc2)n1 [GSK-1070916]"
  assigned_category: 1
- compound: "O=C(Cc1ccc(-c2ccc(OCCN3CCOCC3)cc2)cn1)NCc1ccccc1 [TIRBANIBULIN]"
  assigned_category: 0
- compound: "Nc1ncnc2c1c(-c1cccc(OCc3ccccc3)c1)cn2[C@H]1C[C@@H](CN2CCC2)C1 [AEW-541]"
  assigned_category: 1
- compound: "FC(F)(F)c1ccc(/C=C/c2nc(COc3ccc(CCCCn4ccnn4)cc3)co2)cc1 [MUBRITINIB]"
  assigned_category: 0
- compound: "Cn1cnc2c(F)c(Nc3ccc(Br)cc3F)c(C(=O)NOCCO)cc21 [BINIMETINIB]"
  assigned_category: 0
- compound: "COc1cc2ncnc(Oc3cccc(NC(=O)Nc4cc(C(C)(C)C(F)(F)F)on4)c3)c2cc1OC [CEP-32496]"
  assigned_category: 0
- compound: "Cc1cc(Nc2ncc(Cl)c(Nc3ccccc3S(=O)(=O)C(C)C)n2)c(OC(C)C)cc1C1CCNCC1 [CERITINIB]"
  assigned_category: 0
- compound: "CCS(=O)(=O)c1cccc(-c2cc(C(=O)NC3CCN(C)CC3)c(C)c3[nH]c4ncc(C)cc4c23)c1 [TAK-901]"
  assigned_category: 1
- compound: "Cn1ncc(Cl)c1-c1cc(C(=O)N[C@H](CN)Cc2ccc(F)c(F)c2)oc1Cl [UPROSERTIB]"
  assigned_category: 0
- compound: "C#Cc1cccc(Nc2ncnc3cc(OC)c(OCCCCCCC(=O)NO)cc23)c1 [CUDC-101]"
  assigned_category: 0
- compound: "C[C@@H](N)c1ccc(C(=O)Nc2ccnc3[nH]ccc23)cc1 [Y-39983]"
  assigned_category: 0
- compound: "N#CC1(c2ccc(NC(=O)c3cccnc3NCc3ccncc3)cc2)CCCC1 [RIVOCERANIB]"
  assigned_category: 0
- compound: "CNC(=O)c1cccc2cc(Oc3ccnc4cc(OCC5(N)CC5)c(OC)cc34)ccc12 [LUCITANIB]"
  assigned_category: 0
- compound: "CO[C@H]1C[C@@H]2CC[C@@H](C)[C@@](O)(O2)C(=O)C(=O)N2CCCC[C@H]2C(=O)O[C@H]([C@H](C)C[C@@H]2CC[C@@H](OP(C)(C)=O)[C@H](OC)C2)CC(=O)[C@H](C)/C=C(\\C)[C@@H](O)[C@@H](OC)C(=O)[C@H](C)C[C@H](C)/C=C/C=C/C=C/1C [RIDAFOROLIMUS]"
  assigned_category: 0
- compound: "CN(C[C@@H]1COCCO1)S(=O)(=O)Nc1ccc2ccc3ncc(-c4cnn(C)c4)cc3c(=O)c2c1 [MK-2461]"
  assigned_category: 0
- compound: "O=c1[nH]ccc2cc(OC3CCNCC3)ccc12 [SAR-407899 FREE BASE]"
  assigned_category: 0
- compound: "CC(=O)c1cnc2ccc(-c3cc(Cl)c(O)c(Cl)c3)nc2c1N[C@H]1CC[C@H](CN(C)C)CC1"
  assigned_category: 0
- compound: "C[C@@H](Oc1cc(C(=O)Nc2ccc(C(=O)N3CCN(C)CC3)cc2)nnc1N)c1c(Cl)ccc(F)c1Cl"
  assigned_category: 0
- compound: "CO[C@H]1C[C@@H]2CC[C@@H](C)[C@@](O)(O2)C(=O)C(=O)N2CCCC[C@H]2C(=O)O[C@H]([C@H](C)C[C@@H]2CC[C@@H](OC(=O)C(C)(CO)CO)[C@H](OC)C2)CC(=O)[C@H](C)/C=C(\\C)[C@@H](O)[C@@H](OC)C(=O)[C@H](C)C[C@H](C)/C=C/C=C/C=C/1C [TEMSIROLIMUS]"
  assigned_category: 0
- compound: "CC(C)(C)c1nc(-c2cccc(NS(=O)(=O)c3c(F)cccc3F)c2F)c(-c2ccnc(N)n2)s1 [DABRAFENIB]"
  assigned_category: 1
- compound: "CC(C)c1cc(CNc2nc(Nc3cc(C4CC4)[nH]n3)cc(N3CCN(C)CC3)n2)on1 [XL-228]"
  assigned_category: 0
- compound: "Cc1csc(-c2nnc(Nc3ccc(Oc4ncccc4-c4ccnc(N)n4)cc3)c3ccccc23)c1 [AMG-900]"
  assigned_category: 0

Where these numbers come from: ChEMBL document CHEMBL3991601
